Values were extracted from paper PMC6150275.

molecular target: human IDO1 expressing HEK293 recombinant cells (Homo sapiens, UniProt P14902); construct: expressed in transfected cells; host or cells: Flp-In-Rex- HEK293 cells (Invitrogen), pcDNA5/FRT/TO vector, doxycycline-induced; experiment: Cell based assay for anti-IDO1 activity by determination of tryptophan and kynurenine in culture supernatant using LC-MS; conditions: human IDO1-expressing HEK293 cells, doxycycline induced, 24 h, kynurenine by LC-MS, dose-response curve; read-out: HEK293 IC50 Kynurenine Production
Sequence (P14902 whole entry): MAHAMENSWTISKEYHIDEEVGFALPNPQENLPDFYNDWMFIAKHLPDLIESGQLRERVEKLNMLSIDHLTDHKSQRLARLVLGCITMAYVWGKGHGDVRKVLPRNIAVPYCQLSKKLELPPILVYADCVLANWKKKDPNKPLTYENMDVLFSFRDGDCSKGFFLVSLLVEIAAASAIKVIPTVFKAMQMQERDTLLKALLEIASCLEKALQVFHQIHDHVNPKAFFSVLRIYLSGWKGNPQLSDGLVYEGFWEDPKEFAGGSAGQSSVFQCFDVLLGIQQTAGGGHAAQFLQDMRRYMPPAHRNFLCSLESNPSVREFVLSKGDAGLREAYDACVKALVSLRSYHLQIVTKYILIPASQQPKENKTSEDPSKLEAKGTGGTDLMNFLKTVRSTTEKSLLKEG
pIC50: −log10 of the molar value.
Items are presented alongside their recorded pIC50.
Test readout: pIC50

{"Structure notation": "O/N=C(\\Nc1cccc(Cl)c1)c1cccc2cn[nH]c12", "Rel": "=", "Assay value": 5.31}
{"Structure notation": "CC(=O)c1cccc(N/C(=N\\O)c2cccc3cn[nH]c23)c1", "Rel": "<", "Assay value": 5.00}
{"Structure notation": "Cc1ccc(N/C(=N\\O)c2cccc3cn[nH]c23)cc1", "Rel": "<", "Assay value": 5.00}
{"Structure notation": "COc1ccc(N/C(=N\\O)c2cccc3cn[nH]c23)cc1Cl", "Rel": "<", "Assay value": 5.00}
{"Structure notation": "O/N=C(\\Nc1ccc(F)c(Cl)c1)c1cccc2cn[nH]c12", "Rel": "=", "Assay value": 5.50}

* * *

Target: human IDO1 expressing HEK293 recombinant cells (Homo sapiens)
Construct: expressed in transfected cells; host or cells: Flp-In-Rex- HEK293 cells (Invitrogen), pcDNA5/FRT/TO vector, doxycycline-induced
Test: Cell based assay for anti-IDO1 activity by determination of tryptophan and kynurenine in culture supernatant using LC-MS
Settings: human IDO1-expressing HEK293 cells, doxycycline induced, 24 h, tryptophan by LC-MS, dose-response curve; read-out: HEK293 IC50 Tryptophan Depletion
Protocol: All synthesized compounds were evaluated for inhibitory activities against IDO1. For this purpose, we generated human IDO1 gene-expressing HEK293 recombinant cells and used those cells to analyze the inhibitory capacity of the compounds. […]
pIC50: −log10 of the molar value.
Test readout: pIC50

{"Structure notation": "O/N=C(\\Nc1ccc(F)c(Cl)c1)c1cccc2cn[nH]c12", "Test readout": "pIC50", "Assay value": 5.49}
{"Structure notation": "COc1ccc(N/C(=N\\O)c2cccc3cn[nH]c23)cc1", "Test readout": "pIC50", "Assay value": "< 5.00"}
{"Structure notation": "O/N=C(\\Nc1ccc(F)cc1)c1cccc2cn[nH]c12", "Test readout": "pIC50", "Assay value": "< 5.00"}
{"Structure notation": "O/N=C(\\Nc1ccc(F)c(Br)c1)c1ccccc1O", "Test readout": "pIC50", "Assay value": 5.11}
{"Structure notation": "Cn1ncc2cccc(/C(=N/O)Nc3ccc(F)c(Br)c3)c21", "Test readout": "pIC50", "Assay value": "< 5.00"}
{"Structure notation": "COc1ccc(N/C(=N\\O)c2cccc3cn[nH]c23)cc1Cl", "Test readout": "pIC50", "Assay value": "< 5.00"}
{"Structure notation": "O/N=C(\\Nc1cccc(Cl)c1)c1cccc2cn[nH]c12", "Test readout": "pIC50", "Assay value": 5.31}
{"Structure notation": "O/N=C(\\Nc1cc(F)ccc1F)c1cccc2cn[nH]c12", "Test readout": "pIC50", "Assay value": "< 5.00"}
{"Structure notation": "Cc1cc(N/C(=N\\O)c2cccc3cn[nH]c23)ccc1Cl", "Test readout": "pIC50", "Assay value": "< 5.00"}
{"Structure notation": "CC(=O)c1cccc(N/C(=N\\O)c2cccc3cn[nH]c23)c1", "Test readout": "pIC50", "Assay value": "< 5.00"}
{"Structure notation": "O/N=C(\\Nc1ccc(F)c(Br)c1)c1cccc2cn[nH]c12", "Test readout": "pIC50", "Assay value": 5.75}
{"Structure notation": "O/N=C(\\Nc1ccccc1)c1cccc2cn[nH]c12", "Test readout": "pIC50", "Assay value": "< 5.00"}
{"Structure notation": "Cc1ccc(N/C(=N\\O)c2cccc3cn[nH]c23)cc1", "Test readout": "pIC50", "Assay value": "< 5.00"}
{"Structure notation": "O/N=C(\\Nc1ccc(Cl)cc1)c1cccc2cn[nH]c12", "Test readout": "pIC50", "Assay value": "< 5.00"}
{"Structure notation": "Cc1cccc(N/C(=N\\O)c2cccc3cn[nH]c23)c1", "Test readout": "pIC50", "Assay value": "< 5.00"}
